tested.on: F508delCFTR (Homo sapiens, UniProt P13569, DEL508-508)
Construct: expressed in transfected cells; host or cells: CFBE41o- human lung-derived epithelial cells (CFBE41o-F508delCFTR-HRP), doxycycline-inducible
Sequence (P13569 with tags, fused parts or gaps DEL508-508): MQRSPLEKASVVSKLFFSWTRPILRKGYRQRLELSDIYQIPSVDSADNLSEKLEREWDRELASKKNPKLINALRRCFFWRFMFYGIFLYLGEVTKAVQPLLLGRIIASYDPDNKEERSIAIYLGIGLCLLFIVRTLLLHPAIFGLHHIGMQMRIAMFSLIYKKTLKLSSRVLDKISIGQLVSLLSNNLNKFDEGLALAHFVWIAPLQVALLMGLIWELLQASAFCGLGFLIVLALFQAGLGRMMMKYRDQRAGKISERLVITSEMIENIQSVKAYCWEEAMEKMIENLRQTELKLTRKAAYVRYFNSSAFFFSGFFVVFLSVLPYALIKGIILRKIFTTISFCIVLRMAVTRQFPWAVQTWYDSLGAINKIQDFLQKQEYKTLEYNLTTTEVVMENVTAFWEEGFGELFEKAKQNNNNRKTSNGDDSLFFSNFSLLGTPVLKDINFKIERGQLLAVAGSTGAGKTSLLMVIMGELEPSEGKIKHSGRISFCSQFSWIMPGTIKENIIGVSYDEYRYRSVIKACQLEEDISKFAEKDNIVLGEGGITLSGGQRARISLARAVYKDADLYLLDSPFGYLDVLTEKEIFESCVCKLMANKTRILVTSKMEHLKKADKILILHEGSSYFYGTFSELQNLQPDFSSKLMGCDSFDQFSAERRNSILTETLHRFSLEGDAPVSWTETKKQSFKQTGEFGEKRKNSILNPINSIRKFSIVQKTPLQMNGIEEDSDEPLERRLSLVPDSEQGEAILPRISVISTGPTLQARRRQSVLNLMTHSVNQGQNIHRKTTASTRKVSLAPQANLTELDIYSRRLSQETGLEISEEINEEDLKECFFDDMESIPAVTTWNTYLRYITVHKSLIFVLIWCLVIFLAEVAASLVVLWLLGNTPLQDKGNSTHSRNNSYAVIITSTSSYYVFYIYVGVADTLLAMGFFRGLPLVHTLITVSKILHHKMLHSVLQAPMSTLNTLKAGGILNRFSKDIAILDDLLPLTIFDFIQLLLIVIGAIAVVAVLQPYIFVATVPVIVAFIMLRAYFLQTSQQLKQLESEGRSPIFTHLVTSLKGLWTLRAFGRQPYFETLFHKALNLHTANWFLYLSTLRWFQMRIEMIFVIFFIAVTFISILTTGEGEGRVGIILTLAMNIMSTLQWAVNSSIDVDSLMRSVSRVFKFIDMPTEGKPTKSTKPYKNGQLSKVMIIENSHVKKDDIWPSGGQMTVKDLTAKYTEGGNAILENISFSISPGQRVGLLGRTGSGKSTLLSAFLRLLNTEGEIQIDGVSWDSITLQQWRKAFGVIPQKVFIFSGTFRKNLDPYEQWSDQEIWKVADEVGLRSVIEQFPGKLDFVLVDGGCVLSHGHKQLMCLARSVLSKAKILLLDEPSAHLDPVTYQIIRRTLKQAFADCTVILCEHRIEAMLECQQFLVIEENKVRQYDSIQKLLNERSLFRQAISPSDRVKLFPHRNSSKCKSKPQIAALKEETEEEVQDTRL
procedure.details: Cell Surface Expression-Horse Radish Peroxidase (CSE-HRP) assay, test compound without co-corrector;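 also: percent of on-plate 2 µM positive control corrector response over DMSO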
Assay type: cell-based
condition: maximum at any tested concentration, normalized to positive control, without co-corrector
Quick list: Emax per entry.

- compound: "COc1cccc2c1C(C(=O)NS(=O)(=O)c1cccc3ccccc13)CCC2 (stereo not drawn)"
  value: "≥ 150%"
- compound: "COc1ccc(C2CCC2)c2c1CCCC2C(=O)NS(=O)(=O)c1cccc2ccccc12 (stereo not drawn)"
  value: "≥ 150%"
- compound: "COc1cccc2c1CCC2C(=O)NS(=O)(=O)c1cc(F)ccc1Cl (stereo not drawn)"
  value: "< 50%"

[in] Which Emax value belongs to CCC1(C(=O)NS(=O)(=O)c2ccccc2OC)CCc2c(Cl)cccc21 (stereo not drawn) ?
[out] < 50%

[in] Which Emax value belongs to COc1cccc2c1CCC2C(=O)NS(=O)(=O)c1ccc(S(C)(=O)=O)cc1 (stereo not drawn) ?
[out] < 50%

[in] Which Emax value belongs to COc1cccc2c1CCC2C(=O)NS(=O)(=O)c1ccc(NC(C)=O)cc1C (stereo not drawn) ?
[out] < 50%

---

tested.on: F508delCFTR (Homo sapiens, UniProt P13569, DEL508-508)
Construct: expressed in transfected cells; host or cells: CFBE41o- human lung-derived epithelial cells (CFBE41o-F508delCFTR-HRP), doxycycline-inducible
procedure.details: Cell Surface Expression-Horse Radish Peroxidase (CSE-HRP) assay, test compound without co-corrector;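 also: percent of on-plate 2 µM positive control corrector response over DMSO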
Assay type: cell-based
condition: maximum at any tested concentration, normalized to positive control, without co-corrector
measurement.kind: Emax

Check out these entries, answers already filled in.
- molecule: "COc1cccc2c1CCC[C@H]2C(=O)NS(=O)(=O)c1ccccc1C [II-13]"
  tested.on: "F508delCFTR (Homo sapiens, UniProt P13569, DEL508-508)"
  value: "50 to 150%"
- molecule: "COc1cccc2c1CCC2C(=O)NS(=O)(=O)c1nc2c(c(=O)n(C)c(=O)n2C)n1Cc1ccc(Cl)cc1 (stereo not shown) [III-59]"
  tested.on: "F508delCFTR (Homo sapiens, UniProt P13569, DEL508-508)"
  value: "< 50%"
- molecule: "COc1ccc(C2CCC2)c2c1[C@H](C(=O)NS(=O)(=O)c1cccc3ncn(C)c13)CC2 [Example I-126]"
  tested.on: "F508delCFTR (Homo sapiens, UniProt P13569, DEL508-508)"
  value: "≥ 150%"

[in] Which Emax value belongs to COc1cccc2c1CCC2C(=O)NS(=O)(=O)c1ccc(O)cc1 (stereo not shown) [III-20] ?
[out] < 50%

---

tested.on: F508delCFTR (Homo sapiens, UniProt P13569, DEL508-508)
Construct: expressed in transfected cells; host or cells: CFBE41o- human lung-derived epithelial cells (CFBE41o-F508delCFTR-HRP), doxycycline-inducible
procedure.details: Cell Surface Expression-Horse Radish Peroxidase (CSE-HRP) assay, test compound with co-corrector
Format: cell-based
condition: with 2 μM co-corrector
Quick list: EC50 per entry.

- molecule: "COc1ccc(C(C)(C)O)c2c1C(C(=O)NS(=O)(=O)c1cccc3ccccc13)CC2 (centres unmarked) [Example I-125]"
  tested.on: "F508delCFTR (Homo sapiens, UniProt P13569, DEL508-508)"
  measurement.kind: "EC50"
  value: "3 to 10 µM"
- molecule: "COc1cccc2c1CCC2C(=O)NS(=O)(=O)C1CCOCC1 (centres unmarked) [III-14]"
  tested.on: "F508delCFTR (Homo sapiens, UniProt P13569, DEL508-508)"
  measurement.kind: "EC50"
  value: "≥ 10 µM"
- molecule: "COc1cccc2c1C(C(=O)NS(=O)(=O)c1cccc3ccccc13)C2 (centres unmarked) [II-114]"
  tested.on: "F508delCFTR (Homo sapiens, UniProt P13569, DEL508-508)"
  measurement.kind: "EC50"
  value: "3 to 10 µM"
- molecule: "Cc1ccccc1S(=O)(=O)NC(=O)C1CCc2ccccc2C1 (centres unmarked) [III-10]"
  tested.on: "F508delCFTR (Homo sapiens, UniProt P13569, DEL508-508)"
  measurement.kind: "EC50"
  value: "≥ 10 µM"

Now consider the entry below.
[in] Which EC50 value belongs to COc1ccc(C2CCC2)c2c1[C@H](C(=O)NS(=O)(=O)c1cccc3ncn(C)c13)CC2 [Example I-126] ?
[out] < 3 µM
